Test system: SAGPY (Arrowhead (Pygmaea))
assayText: Postemergence weed control under flooded paddy conditions
Type: in vivo, Sagittaria pygmaea
experimentalConditions: rate 0.0313 kg/ha, postemergence weeds, 3-4 weeks after treatment
testReadout: Herbicidal rating SAGPY

> print(dat)
                                   compound  measvalue
1  CN1C(=O)CSC1=Nc1cc(N2C(=O)C3=C(CCCC3)C2=O)c(F)cc1Cl        0.0
2  CCOC(=O)CN1C(=O)C(C)SC1=Nc1cc(-n2c(=O)cc(C(F)(F)F)n(C)c2=O)c(F)cc1Cl (centres unmarked)        0.0
3  CC1SC(=Nc2cc(-n3c(=O)cc(C(F)(F)F)n(C)c3=O)c(F)cc2Cl)N(C)C1=O (centres unmarked)        0.0
4  CCOC(=O)CN1C(=O)C(F)SC1=Nc1cc(-n2c(=O)cc(C(F)(F)F)n(C)c2=O)c(F)cc1Cl (centres unmarked)        0.0
5  CCOC(=O)CN1CCSC1=Nc1cc(-n2nc(C)n(C(F)F)c2=O)c(F)cc1Cl        0.0

---

System: CASOB (Sicklepod)
assayText: Postemergence herbicidal evaluation
Type: in vivo, Cassia obtusifolia
experimentalConditions: postemergence, rate 0.0625 kg/ha
Protocol: In the tests, seedling plants are grown in jiffy flats for about two weeks. The test compounds are dispersed in 50/50 acetone/water mixtures containing 0.5% TWEEN®20, a polyoxyethylene sorbitan monolaurate surfactant of Atlas Chemical Industries, in sufficient quantities to provide the equivalent of about 0.0156 kg to 0.500 kg per hectare of active compound when applied to the plants through a spray nozzle operating at 40 psi for a predetermined time. […]
testReadout: herbicidal rating CASOB

> print(dat)
                                   compound  measvalue
1  CCOC(=O)CN1C(=O)C(C(=O)OCC)SC1=Nc1cc(-n2c(=O)cc(C(F)(F)F)n(C)c2=O)c(F)cc1Cl (stereo not shown)        1.0
2  COCCN1C(=O)CSC1=Nc1cc(-n2c(=O)cc(C(F)(F)F)n(C)c2=O)c(F)cc1Cl        0.0
3  Cn1c(C(F)(F)F)cc(=O)n(-c2cc(N=C3SCC(=O)N3CC(=O)OCC3CC3)c(Cl)cc2F)c1=O        3.0
4  CCS(=O)(=O)NC(=O)CC1SC(=Nc2cc(-n3c(=O)cc(C(F)(F)F)n(C)c3=O)c(F)cc2Cl)N(C)C1=O (stereo not shown)        0.0

---

Measured CYPIR herbicidal effect rating, listed per entry for reference.
Tested on: CYPIR (Rice Flatsedge)
assayText: Preemergence weed control under flooded paddy conditions
Format: in vivo, Cyperus iria
experimentalConditions: 0.0625 kg/ha, rated 3-4 weeks after treatment
testReadout: CYPIR herbicidal effect rating

> print(dat)
                                   molecule           assayedtarget  measvalue
1  CCCCOC(=O)CN1C(=O)CSC1=Nc1cc(-n2c(=O)cc(C(F)(F)F)n(C)c2=O)c(F)cc1Cl  CYPIR (Rice Flatsedge)        3.0
2  CN1C(=O)C(CC(=O)NS(C)(=O)=O)SC1=Nc1cc(-n2c(=O)cc(C(F)(F)F)n(C)c2=O)c(F)cc1Cl (centres unmarked)  CYPIR (Rice Flatsedge)        0.0
3  C#CCOC(=O)CC1SC(=Nc2cc(-n3c(=O)cc(C(F)(F)F)n(C)c3=O)c(F)cc2Cl)N(CC(=O)OCC)C1=O (centres unmarked)  CYPIR (Rice Flatsedge)        0.0
4  C=CCN1C(=O)C(CC(=O)OC(C)C)SC1=Nc1cc(-n2c(=O)cc(C(F)(F)F)n(C)c2=O)c(F)cc1Cl (centres unmarked)  CYPIR (Rice Flatsedge)        6.0
5  COC(=O)C1(N2C(=O)CSC2=Nc2cc(-n3c(=O)cc(C(F)(F)F)n(C)c3=O)c(F)cc2Cl)CCCCC1  CYPIR (Rice Flatsedge)        4.0

---

Test system: CASOB (Sicklepod)
assayText: Postemergence herbicidal evaluation
Assay type: in vivo, Cassia obtusifolia
experimentalConditions: postemergence, rate 0.1250 kg/ha
Everything with CASOB herbicidal rating lower than 1 is false (0); everything else, including exactly 1, is true (1).

> print(dat)
                                   molecule  classification
1  CCC1SC(=Nc2cc(-n3c(=O)cc(C(F)(F)F)n(C)c3=O)c(F)cc2Cl)N(C)C1=O (stereo not drawn) [Compound 10]        true (1)
2  O=C1CSC(=Nc2cc(N3C(=O)C4=C(CCCC4)C3=O)c(F)cc2Cl)N1c1ccccc1 [Compound 3]       false (0)
3  COC(=O)CN1C(=O)CSC1=Nc1cc(-n2c(=O)cc(C(F)(F)F)n(C)c2=O)c(F)cc1Cl [Compound 17]        true (1)
4  CCOC(=O)CN1C(=O)C(C)SC1=Nc1cc(-n2c(=O)cc(C(F)(F)F)n(C)c2=O)c(F)cc1Cl (stereo not drawn) [Compound 12]        true (1)
5  CN1C(=O)C(F)SC1=Nc1cc(N2C(=O)C3=C(CCCC3)C2=O)c(F)cc1Cl (stereo not drawn) [Compound 5]       false (0)

---

Entries and their Herbicidal rating MOOVA values follow.
System: MOOVA (Monochoria)
assayText: Postemergence weed control under flooded paddy conditions
Format: in vivo, Monochoria vaginalis
experimentalConditions: rate 0.2500 kg/ha, postemergence weeds, 3-4 weeks after treatment
testReadout: Herbicidal rating MOOVA

> print(dat)
                                   compound  measvalue
1  CCOC(=O)CN1C(=O)C(C)SC1=Nc1cc(-n2c(=O)cc(C(F)(F)F)n(C)c2=O)c(F)cc1Cl (stereo not shown)        9.0
2  CN1C(=O)CSC1=Nc1cc(N2C(=O)C3=C(CCCC3)C2=O)c(F)cc1Cl        5.0
3  COC(=O)CN1C(=O)CSC1=Nc1cc(-n2c(=O)cc(C(F)(F)F)n(C)c2=O)c(F)cc1Cl        9.0
4  CCOC(=O)COc1ccccc1CC1S/C(=N/c2cc(-n3c(=O)cc(C(F)(F)F)n(C)c3=O)c(F)cc2Cl)N(CC(=O)OCC)C1=O (stereo not shown)        9.0
5  Cn1c(C(F)(F)F)cc(=O)n(-c2cc(N=C3SCC(=O)N3CCC(=O)O)c(Cl)cc2F)c1=O        4.5
6  CCOC(=O)CN1C(=O)CSC1=Nc1cc(N2C(=O)C3=C(CCCC3)C2=O)c(F)cc1Cl        9.0
7  Cn1c(C(F)(F)F)cc(=O)n(-c2cc(N=C3SCC(=O)N3CC(=O)NS(C)(=O)=O)c(Cl)cc2F)c1=O        9.0

---

Tested on: ECHCG (Barnyardgrass)
assayText: Postemergence herbicidal evaluation
Format: in vivo, Echinochloa crus-galli
experimentalConditions: postemergence, rate 0.0630 kg/ha
herbicidal rating ECHCG reference
testReadout: herbicidal rating ECHCG

> print(dat)
                                   compound              testreadout  measvalue
1  C=CCN1C(=O)C(CC(=O)NS(=O)(=O)C(C)C)SC1=Nc1cc(-n2c(=O)cc(C(F)(F)F)n(C)c2=O)c(F)cc1Cl (stereo not shown)  herbicidal rating ECHCG        1.0
2  CCOC(=O)CN1C(=O)C(CC(=O)O)SC1=Nc1cc(-n2nc(C)n(C(F)F)c2=O)c(F)cc1Cl (stereo not shown)  herbicidal rating ECHCG        4.0
3  C=CCOC(=O)CN1C(=O)CSC1=Nc1cc(-n2c(=O)cc(C(F)(F)F)n(C)c2=O)c(F)cc1Cl  herbicidal rating ECHCG        7.0
4  COCCOC(=O)CN1C(=O)CSC1=Nc1cc(-n2c(=O)cc(C(F)(F)F)n(C)c2=O)c(F)cc1Cl  herbicidal rating ECHCG        3.0

---

System: IPOHE (Morningglory, Ivyleaf)
assayText: Preemergence herbicidal evaluation
Type: in vivo, Ipomoea hederacea
experimentalConditions: rate 0.1250 kg/ha; rated 4-5 weeks after treatment
Preemergence herbicidal rating IPOHE listing for selected compounds.
testReadout: Preemergence herbicidal rating IPOHE

> print(dat)
                                   compound  measvalue
1  CCOC(=O)CN1C(=O)CSC1=Nc1cc(N2C(=O)C3=C(CCCC3)C2=O)c(F)cc1Cl [Compound 47]        0.0
2  Cn1c(C(F)(F)F)cc(=O)n(-c2cc(N=C3SCC(=O)N3CCC(=O)O)c(Cl)cc2F)c1=O [Compound 30]        1.0
3  Cn1c(C(F)(F)F)cc(=O)n(-c2cc(N=C3SCC(=O)N3[C@H](Cc3ccccc3)C(=O)O)c(Cl)cc2F)c1=O [Compound 69]        1.0
